These measurements were taken from patent US10988478B1.

Entries and their pKi values follow.
Target: human IRAK4 (Homo sapiens (Human), UniProt Q9NWZ3)
Sequence (Q9NWZ3 whole entry): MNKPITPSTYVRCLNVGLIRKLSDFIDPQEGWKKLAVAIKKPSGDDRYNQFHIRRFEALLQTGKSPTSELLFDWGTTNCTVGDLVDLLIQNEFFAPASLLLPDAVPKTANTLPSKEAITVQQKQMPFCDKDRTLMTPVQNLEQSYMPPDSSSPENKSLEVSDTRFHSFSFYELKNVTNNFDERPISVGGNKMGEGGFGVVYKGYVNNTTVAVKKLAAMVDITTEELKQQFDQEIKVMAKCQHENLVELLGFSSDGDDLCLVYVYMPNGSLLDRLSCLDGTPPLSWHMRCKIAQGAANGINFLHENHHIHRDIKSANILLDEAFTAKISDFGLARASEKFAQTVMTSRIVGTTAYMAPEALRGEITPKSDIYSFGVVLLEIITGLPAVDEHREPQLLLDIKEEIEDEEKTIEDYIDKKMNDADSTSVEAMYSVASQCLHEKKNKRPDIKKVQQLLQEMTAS
Experiment: IRAK4 kinase inhibition, Transcreener fluorescence polarization ADP assay
Conditions: recombinant full-length His6-IRAK4; 125 uM ATP; 90 min; Ki computed using ATP Km 642 uM
pKi: −log10 of the molar value.
measured_attribute: pKi

compound_string=C[C@@]1(CO)Cc2cc(NC(=O)c3cnn4cccnc34)c(N3CCC4(CC3)CNC(=O)C4)cc2O1 measured_attribute=pKi reported_value=8.32
compound_string=Cn1cc(CN2CCN(c3cc4c(cc3NC(=O)c3cnn5cccnc35)CC(C)(C)O4)CC2)cn1 measured_attribute=pKi reported_value=8.23
compound_string=CC1(C)Cc2cc(NC(=O)c3cnn4cccnc34)c(N3CCN(CC(=O)N4CCCC4)CC3)cc2O1 measured_attribute=pKi reported_value=6.60
compound_string=C[C@@]1(O)COc2cc(N3CCC(C#N)CC3)c(NC(=O)c3cnn4cccnc34)cc2C1 measured_attribute=pKi reported_value=7.42
